Give measured cell viability for each item. Keep answers brief.
system: Vero E6; experiment: cell viability relative to DMSO; higher = less toxic; conditions: 72 h; 100 nM
Give the quantity in %, number only.

Need cell viability of `CC1(C)C(=O)N(CCN2CCC(C(=O)c3ccc(F)cc3)CC2)c2ccccc21` , thanks.
91.8

Find the recorded cell viability belonging to `CC(C)(N)C(=O)N[C@H](COCc1ccccc1)C(=O)N1CCC2(CC1)CN(S(C)(=O)=O)c1ccccc12` and report it.
98.1

Value lookup for cell viability; key = Cc1ccccc1OCC(O)CO (stereo not given)
99.6

Entry `COc1ccc(CNCc2cccc3ccccc23)cc1` has what cell viability?
94.1

Name the reported cell viability value associated with the molecule C#C[C@]1(OC(C)=O)CC[C@H]2[C@@H]3CCC4=C[C@@H](OC(C)=O)CC[C@@H]4[C@H]3CC[C@@]21C [ethynodiol-diacetate]
104

Need cell viability of `CCCc1nc(C(C)(C)O)c(C(=O)O)n1Cc1ccc(-c2ccccc2-c2nnn[nH]2)cc1` , thanks.
97.2

Bench note: what cell viability did `O=C(NCCN1CCC2(CC1)C(=O)NCN2c1cccc(F)c1)c1ccc(F)c(F)c1` show?
102

Sample `C[C@H](N[C@@H](CCc1ccccc1)C(=O)O)C(=O)N1CCC[C@H]1C(=O)O` — what was its cell viability?
99.1

Quick one: cell viability of `Cc1noc(C)c1-c1cc(O)cc([C@@H](O)c2ccccc2)c1` ?
94.6

Fill in the blank: the reported cell viability of `O=C(/C=C/C=C/c1ccc2c(c1)OCO2)N1CCCCC1` is ____.
109

Item under review: `c1ccc(C2CC2)c(OCC2=NCCN2)c1` . Reported cell viability?
95.8

Value lookup for cell viability; key = `Cc1cc(N2CCOCC2)ccc1Nc1nc(NC2CCCCC2)c2nc[nH]c2n1`
98.2

May I ask what cell viability has been recorded for `O=C(CCN1CCN(C(=O)OCc2cc(Cl)cc(Cl)c2)CC1)c1ccc2[nH]c(=O)oc2c1` ?
104

Query: cell viability; subject: `O=C(O)Cc1sc(-c2ccccc2)nc1-c1ccc(Cl)cc1`
96

# query: cell viability of entry CCOC(=O)C1=C[C@@H](OC(CC)CC)[C@H](NC(C)=O)[C@@H](N)C1 [oseltamivir-phosphate]
99.1

Report cell viability for CC(=O)OCC(=O)NCCCOc1cccc(CN2CCCCC2)c1 [roxatidine-acetate] please.
99.1

For the molecule `NC1(C(=O)N[C@@H](CCO)c2ccc(Cl)cc2)CCN(c2ncnc3[nH]ccc23)CC1` , what cell viability is on record?
96.4

If you can, please state the reported cell viability value of `CCCCCCNC(=O)Nc1ccc(S(=O)(=O)Nc2ccc(CCNC[C@H](O)COc3ccc(O)cc3)cc2)cc1` .
91

What value of cell viability has been recorded for this entry: `N=C(N)c1ccc(-c2ccc(-c3ccc(C(=N)N)cc3)o2)cc1`
97.9

Give the measured cell viability of `CC1(C)CC(Oc2ccc(-c3ccc(-c4cn[nH]c4)cc3O)nn2)CC(C)(C)N1` .
104

I'd like to know its cell viability. The molecule in question is CC12CCC(C(=O)N(CCCCN3CCN(c4ccccn4)CC3)C1=O)C2(C)C (stereo not given)
101

I would be grateful if you could share the reported cell viability for `O=NN(CCCl)C(=O)NC1CCCCC1` .
99.6

Tell me the measured cell viability of `NNC(=O)CN1C(=O)CN=C(c2ccccc2)c2cc(Br)ccc21` , please.
93

Report cell viability for CC(C)C[C@H](NC(=O)[C@@H](COC(C)(C)C)NC(=O)[C@H](Cc1ccc(O)cc1)NC(=O)[C@H](CO)NC(=O)[C@H](Cc1c[nH]c2ccccc12)NC(=O)[C@H](Cc1cnc[nH]1)NC(=O)[C@@H]1CCC(=O)N1)C(=O)N[C@@H](CCCNC(=N)N)C(=O)N1CCC[C@H]1C(=O)NNC(N)=O [goserelin-acetate] please.
104

For the molecule shown here, O=C(CC1NCCCC1O)Cn1cnc2cc(Br)c(Cl)cc2c1=O (stereo not given) , give the reported cell viability.
42

What value of cell viability has been reported for the following molecule? `CCOC(=O)[C@H](CCc1ccccc1)N[C@H]1CCc2ccccc2N(CC(=O)O)C1=O`
96.1

If you can, please state the reported cell viability value of NCc1ccccc1CC(=O)N[C@@H]1C(=O)N2C(C(=O)O)=C(CSc3nnnn3CC(=O)O)CS[C@H]12 [ceforanide] .
96.8

Field request: cell viability | item: `COc1ccccc1N1CCN(CCCCNC(=O)c2ccc(-c3ccc(C(C)=O)cc3)cc2)CC1`
101

Could you tell me which cell viability is on file for `Cc1c(C(=O)NCCCO)cnn1-c1nc(-c2cccc(C(F)(F)F)c2)cs1` ?
102

Reported cell viability, molecule `CCS(=O)(=O)N1CCC[C@@H]2CN3CCc4cc(OC)ccc4[C@@H]3C[C@@H]21` : ____
97.1

Quick one: cell viability for O=C1CS[C@@H](c2ccccc2Cl)c2cc(Cl)ccc2N1 (racemic) ?
99.1

Recorded cell viability of C[C@]12N[C@H](Cc3ccccc31)c1ccccc12 [dizocilpine-(-)] , please.
101

GET /values?readout=cell viability&item= O=C(NCCCN1CCCCCC1)C(c1ccccc1)C1CCCCC1 (stereo not given)
96.5

Field request: cell viability | item: NCC(CC(=O)O)c1ccccc1 (stereo not given)
97.6

# get_value(readout='cell viability', item= `CC(C)Nc1cccnc1N1CCN(C(=O)c2cc3cc(NS(C)(=O)=O)ccc3[nH]2)CC1` )
87.9
